Test System: T1, human VEGFA165 (human, UniProt P15692-4 27-191)
T1 construct: Bought protein from two suppliers, treated as one molecule; the supplier is named under assay; also called antigen VEGFA
T1 sequence (P15692 other isoform, or with tags, fused parts or gaps limits assumed): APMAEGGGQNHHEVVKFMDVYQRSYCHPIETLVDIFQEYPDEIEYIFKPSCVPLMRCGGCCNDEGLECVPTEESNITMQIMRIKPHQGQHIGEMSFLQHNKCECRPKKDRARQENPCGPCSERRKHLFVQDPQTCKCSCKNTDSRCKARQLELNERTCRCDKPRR
Run Description: ELISA, coated human VEGFA165, anti-His detection
Measured EC50 accompanies every entry in the list below.
Readout Kind: EC50 (nM)

{"columns": ["Binder", "Readout Kind", "Recorded Result"],
 "data": [
  ["2V30-2H-2m-3GS (VHH, Tandem bivalent humanized nanobody) EVQLVESGGGLVQPGGSLRLSCAASGRTFSSYTMGWFRQAPGKEREFVVAISKGGYKYDAVSLEARFTISRDNSKNTVYLQMNSLRPEDTAVYYCAATRAYGSSRLRLAKTYEYWGQGTLVTVSSGGSEVQLVESGGGLVQPGGSLRLSCAASGRTFSSYTMGWFRQAPGKEREFVVAISKGGYKYDAVSLEARFTISRDNSKNTVYLQMNSLRPEDTAVYYCAATRAYGSSRLRLAKTYEYWGQGTLVTVSS", "EC50", 0.94],
  ["2V1-SA1-3GS (VHH, Tandem bivalent humanized nanobody) EVQLVESGGGLVQPGGSLRLSCAVSGRTFSSYTMGWFRQAPGKEREFVVAISKGGYKYDSVSLEARFTISRDNAKNTVYLQMNSLRPEDTAVYYCAATRAYGSSRLRLADTYEYWGQGTLVTVSSGGSEVQLVESGGGLVQPGGSLRLSCAVSGRTFSSYTMGWFRQAPGKEREFVVAISKGGYKYDSVSLEARFTISRDNAKNTVYLQMNSLRPEDTAVYYCAATRAYGSSRLRLADTYEYWGQGTLVTVSS", "EC50", 0.26]
]}
